# MEASURED_TARGET: T1, EsCas13d, nuclease-dead (Eubacterium siraeum, UniProt B0MS50, R295A;H300A;R849A;H854A)
# T1 sequence: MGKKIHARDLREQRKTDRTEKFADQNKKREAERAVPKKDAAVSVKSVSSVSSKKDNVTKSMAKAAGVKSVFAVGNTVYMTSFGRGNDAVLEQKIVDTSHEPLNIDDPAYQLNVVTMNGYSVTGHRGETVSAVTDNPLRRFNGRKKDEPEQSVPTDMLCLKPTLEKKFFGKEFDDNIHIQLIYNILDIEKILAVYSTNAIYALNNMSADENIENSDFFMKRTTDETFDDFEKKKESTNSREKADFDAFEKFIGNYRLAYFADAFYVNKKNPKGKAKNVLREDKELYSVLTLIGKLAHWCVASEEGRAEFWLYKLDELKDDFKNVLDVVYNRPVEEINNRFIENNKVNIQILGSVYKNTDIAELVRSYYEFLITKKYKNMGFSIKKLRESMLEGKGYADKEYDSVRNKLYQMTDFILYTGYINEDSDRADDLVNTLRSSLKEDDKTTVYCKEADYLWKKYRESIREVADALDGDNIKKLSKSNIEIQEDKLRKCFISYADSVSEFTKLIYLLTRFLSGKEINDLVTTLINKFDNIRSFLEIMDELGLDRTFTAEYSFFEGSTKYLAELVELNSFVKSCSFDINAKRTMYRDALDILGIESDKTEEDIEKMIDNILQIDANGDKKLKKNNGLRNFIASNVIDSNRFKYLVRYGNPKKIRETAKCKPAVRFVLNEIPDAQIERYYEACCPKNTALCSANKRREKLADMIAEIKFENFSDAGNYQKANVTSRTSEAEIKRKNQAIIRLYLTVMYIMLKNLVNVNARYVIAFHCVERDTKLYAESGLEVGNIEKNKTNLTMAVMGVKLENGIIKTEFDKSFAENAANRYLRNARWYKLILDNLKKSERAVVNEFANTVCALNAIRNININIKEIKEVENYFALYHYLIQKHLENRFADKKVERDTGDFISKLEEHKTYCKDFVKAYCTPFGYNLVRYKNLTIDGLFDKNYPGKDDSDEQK
# MEASUREMENT_PROTOCOL: crRNA (strand 1, pre-loaded); Mg2+; 40 mM Tris-HCl pH 7.5, 150 mM NaCl, 6 mM MgCl2, 1 mM DTT, 0.1% Tween-20, 0.2 mg/ml BSA; 25 C; 10 min per concentration, then washed
# SETUP_CONDITIONS: tags: His6-TwinStrep-SUMO cleaved; N-terminal SNAP kept (SNAP-Surface 488); label: 3' end held by stalled T7 RNA polymerase
ENDPOINT_LABEL: pKd
Would you please state pKd, meaning minus log10 of the concentration in mol/L, as a bare number?

Illustrative cases are given below, each with its answer.
target 3 C6U,A11U (mixed) RNA 1: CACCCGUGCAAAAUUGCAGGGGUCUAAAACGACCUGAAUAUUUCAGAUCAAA RNA 2: GGGAAUGGAUCCACAUCUACGAAUUCGUUUUUGAUCUGAAUUAUUUAGGUCUGCAGAUCGGAAGAGCACACGU; 7.04
target 3 insA 3' of 8,insU 3' of 6 (mixed) RNA 1: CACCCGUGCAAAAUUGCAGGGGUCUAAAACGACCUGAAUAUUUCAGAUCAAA RNA 2: GGGAAUGGAUCCACAUCUACGAAUUCGUUUUUGAUCUGAAAUAUAUCUAGGUCUGCAGAUCGGAAGAGCACACGU; 7.47
target 1 G12A,G17A (mixed) RNA 1: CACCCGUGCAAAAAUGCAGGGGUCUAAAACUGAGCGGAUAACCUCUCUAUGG RNA 2: GGGAAUGGAUCCACAUCUACGAAUUCGUACCAUAAAGAGAUUAUCCGCUCACCGAGAUCGGAAGAGCACACGU; 7.51

We next turn to a different binder, shown below.
Query: # lookup: pKd of target 1 insG 3' of 11 (mixed) RNA 1: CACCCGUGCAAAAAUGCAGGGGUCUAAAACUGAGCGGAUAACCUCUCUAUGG RNA 2: GGGAAUGGAUCCACAUCUACGAAUUCGUACCAUAGAGAGGUGUAUCCGCUCACCGAGAUCGGAAGAGCACACGU
Response: 7.48
